PROCEDURE_TEXT: Study on DMPK in cynomolgus monkeys (oral, single administration)
Format: in vivo
CONDITIONS_USED: cynomolgus monkey, male cynomolgus monkeys, oral 20 mg/kg, plasma
Experimental: Male cynomolgus monkeys were used as test animals. After single administration, the plasma concentration of the compound was measured, and the pharmacokinetic behavior was evaluated. Two healthy male cynomolgus monkeys were selected as a group. In the oral group, the vehicle was 20% HP-β-CD aqueous solution; after the compound to be tested was mixed with the vehicle, 4 mg/mL approximately clear solution was prepared by vortex and ultrasound. […]

- SMILES_DATA: "O=C(O)c1cc2c(nc(CN3CC=C(c4cccc(OCc5ccc(Cl)cc5F)n4)CC3)n2C[C@@H]2CCO2)s1"
  Cmax [nM]: 1420

Data credit: patent US20250154161A1
